The entries below are paired with their reported IC50.
biological target: EGFR WT (Homo sapiens (Human), UniProt P00533)
Sequence (P00533 25-1210): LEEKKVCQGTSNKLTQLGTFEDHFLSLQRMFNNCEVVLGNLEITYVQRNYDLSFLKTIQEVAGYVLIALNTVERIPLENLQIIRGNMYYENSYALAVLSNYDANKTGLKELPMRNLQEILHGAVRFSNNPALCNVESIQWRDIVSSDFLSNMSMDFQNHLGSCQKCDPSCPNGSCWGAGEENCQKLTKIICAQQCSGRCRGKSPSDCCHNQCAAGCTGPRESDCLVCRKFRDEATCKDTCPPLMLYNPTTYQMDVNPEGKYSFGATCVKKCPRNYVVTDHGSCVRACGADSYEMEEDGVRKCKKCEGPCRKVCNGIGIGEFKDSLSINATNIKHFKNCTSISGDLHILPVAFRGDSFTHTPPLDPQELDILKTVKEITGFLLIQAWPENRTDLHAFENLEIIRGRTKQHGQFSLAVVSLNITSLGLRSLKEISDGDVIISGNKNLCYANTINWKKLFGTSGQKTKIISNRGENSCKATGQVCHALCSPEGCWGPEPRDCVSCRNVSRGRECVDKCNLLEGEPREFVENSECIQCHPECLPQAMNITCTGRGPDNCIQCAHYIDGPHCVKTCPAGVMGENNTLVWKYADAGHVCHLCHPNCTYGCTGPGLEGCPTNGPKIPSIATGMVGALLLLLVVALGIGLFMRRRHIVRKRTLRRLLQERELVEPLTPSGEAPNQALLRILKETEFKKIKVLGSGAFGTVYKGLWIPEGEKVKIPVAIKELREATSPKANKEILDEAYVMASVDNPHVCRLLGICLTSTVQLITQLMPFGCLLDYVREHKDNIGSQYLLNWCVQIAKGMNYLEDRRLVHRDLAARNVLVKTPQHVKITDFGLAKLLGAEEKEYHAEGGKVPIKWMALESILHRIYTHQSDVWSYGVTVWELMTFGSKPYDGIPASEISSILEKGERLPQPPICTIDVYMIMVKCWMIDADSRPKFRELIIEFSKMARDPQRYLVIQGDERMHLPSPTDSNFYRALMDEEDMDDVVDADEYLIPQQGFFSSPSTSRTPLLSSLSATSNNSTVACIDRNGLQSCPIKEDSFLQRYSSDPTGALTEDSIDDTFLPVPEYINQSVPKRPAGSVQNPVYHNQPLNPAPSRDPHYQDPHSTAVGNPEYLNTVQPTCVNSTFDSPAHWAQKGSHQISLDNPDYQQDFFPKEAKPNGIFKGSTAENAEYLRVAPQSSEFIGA
Counter-ions that a name gives are not always drawn.

COMPOUND: C=CC(=O)N1CCN(c2nc3c(Nc4ccc(Oc5ccc6c(c5)nnn6C)c(C)c4)ncnc3cc2OC)CC1
RECORDED METRIC: IC50
RESULT: < 50 nM
--
COMPOUND: C=CC(=O)N1CCN(c2ncc3ncnc(Nc4ccc(Oc5ccc6c(c5)nnn6C)c(C)c4)c3n2)C[C@H]1COC
RECORDED METRIC: IC50
RESULT: 50 to 100 nM
--
COMPOUND: C=CC(=O)N1C[C@@H](C)N(c2ncc3ncnc(Nc4ccc(Oc5ccc6c(c5)nnn6C)c(C)c4)c3n2)C[C@H]1C
RECORDED METRIC: IC50
RESULT: ≥ 1000 nM
--
COMPOUND: C=CC(=O)N1C2C=C(c3ccc4ncnc(Nc5ccc(Oc6ccc7c(c6)nnn7C)c(C)c5)c4n3)CC1CC2 (stereo not shown) [Compound 409, trifluoroacetate]
RECORDED METRIC: IC50
RESULT: 100 to 500 nM
--
COMPOUND: C=CC(=O)N1CCN(c2ncc3ncnc(Nc4cc(C)c(Oc5ccc6c(c5)nnn6C)cc4F)c3n2)CC1
RECORDED METRIC: IC50
RESULT: 100 to 500 nM
--
COMPOUND: C=C(COC)C(=O)NC1(C)CCN(c2ncc3ncnc(Nc4ccc(Oc5ccc6c(c5)nnn6C)c(C)c4)c3n2)CC1
RECORDED METRIC: IC50
RESULT: ≥ 1000 nM
--
COMPOUND: C=CC(=O)N1C2CCCC1CC(c1ccc3ncnc(Nc4ccc(Oc5ccc6c(c5)nnn6C)c(C)c4)c3n1)C2 (stereo not shown) [Compound 395, trifluoroacetate]
RECORDED METRIC: IC50
RESULT: 100 to 500 nM
--
COMPOUND: C=CC(=O)N1CCN(c2ccc3ncnc(Nc4ccc(Oc5ccc6c(c5)nnn6C)c(C)c4)c3n2)CC12CC2
RECORDED METRIC: IC50
RESULT: < 50 nM
--
COMPOUND: C=CC(=O)N1CCC(Oc2ncc3ncnc(Nc4ccc(Oc5ccc6c(c5)ncn6C)c(C)c4)c3n2)CC1
RECORDED METRIC: IC50
RESULT: 50 to 100 nM
--
COMPOUND: C=CC(=O)N1CCN(c2ncc3ncnc(Nc4ccc(Oc5ccc6c(c5)nnn6C)c(C)c4F)c3n2)CC12CC2
RECORDED METRIC: IC50
RESULT: < 50 nM

stdin: Report the value of IC50 obtained on EGFR WT (Homo sapiens (Human), UniProt P00533) for Cc1cc(Nc2ncnc3cnc(N4CCN(C(=O)/C=C/CN5CCOCC5)CC4)nc23)ccc1Oc1ccc2c(c1)nnn2C [Compound 53, formate] .
stdout: 100 to 500 nM

stdin: Please look at C=CC(=O)N(C)CCOc1ncc2ncnc(Nc3ccc(Oc4ccc5c(c4)ncn5C)c(C)c3)c2n1 and tell me its recorded IC50 on EGFR WT (Homo sapiens (Human), UniProt P00533).
stdout: ≥ 1000 nM

stdin: Enter measured IC50, system EGFR WT (Homo sapiens (Human), UniProt P00533), for the compound shown: C=CC(=O)N[C@H]1CN(c2ccc3ncnc(Nc4ccc(Oc5ccc6c(c5)nnn6C)c(C)c4F)c3n2)CC[C@@H]1C (single isomer, unassigned)
stdout: 100 to 500 nM

The reported measurements were obtained from patent US20250129078A1.
